All figures here come from paper PMC9482650.

Biological target: LNX1_3, Q8TBB1
Sequence (Q8TBB1 500-596): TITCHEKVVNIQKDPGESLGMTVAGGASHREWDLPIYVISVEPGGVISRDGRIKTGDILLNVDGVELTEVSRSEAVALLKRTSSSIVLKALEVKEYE
Assay: holdup assay
Design: key: below the threshold = too weak to quantify, mostly under pKd 3.1 to 4
Details: plain residues with an end cap or a label only (N-terminal biotin on a linker: ttds)
measurement.label: pKd

> print(dat)
                            binder               result
1        LDSQIQETSI [MAP4, P27816]  below the threshold
2       PKRPFVESNV [TANC2, Q9HCD6]  below the threshold
3         HIVEALETDV [PBK, Q96KB5]  below the threshold
4  SEKHFRETEV [HTLV1-TAX1, P03409]                 3.64
5    RTRQRNETQV [HPV51-E6, P26554]  below the threshold
6    DPRNTQTSQI [ABRAXAS2, Q15018]  below the threshold

# input for lookup
Exam item: Consider the binder LCALPKVTTV [AGMAT, Q9BSE5] . State its measured pKd.
Marked response: 3.61
